Cited source for all entries: ChEMBL document CHEMBL2086238

The following compounds are shown together with reported inhibition values.
target: Insulin-like growth factor 1 receptor (Homo sapiens); assay: Inhibition of IGF1R at 1 uM
outcome_measure: inhibition

1. CS(=O)(=O)N1CCN(Cc2nc3c(N4CCOCC4)nc(-c4cnc(N)nc4)cn3c2Br)CC1 :: < 30%
2. Cc1c(CN2CCN(S(C)(=O)=O)CC2)nc2c(N3CCOCC3)nc(-c3cnc(N)nc3)cn12 :: < 30%
3. CS(=O)(=O)N1CCN(Cc2cn3c(Cl)c(-c4cnc(N)nc4)nc(N4CCOCC4)c3n2)CC1 :: < 30%
4. Cc1nc(N)ncc1-c1cn2cc(CN3CCN(S(C)(=O)=O)CC3)nc2c(N2CCOCC2)n1 :: < 30%
5. CS(=O)(=O)N1CCN(Cc2cn3cc(-c4cnc(N)nc4)nc(N4CCOCC4)c3n2)CC1 :: < 30%
